Entry source: PubChem BioAssay (NCI)

System: SN12C renal
assay_overview: NCI tumour cell line growth inhibition, 48 h
recorded_endpoint: TGI

In plain terms, O=c1cc(CO)oc2c3c(cc(O)c12)OCC(COC1OC(CO)C(O)C(O)C1O)=CC3 (stereo unspecified) has a documented TGI of > 100 µM

In plain terms, `COc1ccc(-n2[nH]nc(C(N)=O)c2=O)cc1` has a documented TGI of > 100 µM

In plain terms, `c1cc2c(cc1NC1=NCCO1)OCO2` has a documented TGI of > 100 µM

In plain terms, [N-]=[N+]=NC(c1cn(C2CC(O)C(CO)O2)c(=O)[nH]c1=O)C(Br)Br (stereo unspecified) has a documented TGI of > 100 µM

In plain terms, `O=C(Nc1cc(C(F)(F)F)ccc1Cl)c1ccc(NC2=C(Cl)C(=O)N(Cc3ccccc3)C2=O)cc1` has a documented TGI of 61.2 µM

In plain terms, `O=C(/C=C/c1ccccc1)CSc1ncn[nH]1` has a documented TGI of > 100 µM
